Measured values drawn from patent US9073911B2 for this set.

Target: mouse TAAR1 (Mus musculus (Mouse), UniProt Q923Y8)
Sequence (Q923Y8 whole entry): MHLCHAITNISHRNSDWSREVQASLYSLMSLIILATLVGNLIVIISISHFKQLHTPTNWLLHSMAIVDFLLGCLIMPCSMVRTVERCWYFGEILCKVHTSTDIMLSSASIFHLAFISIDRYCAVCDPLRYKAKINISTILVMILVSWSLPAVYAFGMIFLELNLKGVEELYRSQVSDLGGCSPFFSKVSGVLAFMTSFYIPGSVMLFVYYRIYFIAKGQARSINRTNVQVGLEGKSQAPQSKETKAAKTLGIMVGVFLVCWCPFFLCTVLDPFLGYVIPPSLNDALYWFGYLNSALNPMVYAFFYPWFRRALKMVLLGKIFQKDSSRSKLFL
Experiment: Radioligand binding assay on mouse TAAR1
Details: membranes of HEK-293 cells stably expressing mouse TAAR1; first value of cell mouse/rat
Counter-ions that a name gives are not always drawn.
Please respond with reported Ki for every item in the list.
Answer with the number, then the unit.

Indicate the recorded Ki value for this compound: O=C(Nc1ccc([C@H]2CNCCO2)cc1)c1ccn(-c2cncc(Cl)n2)n1 [Example 48, hydrochloride]
0.0086 µM

Indicate the recorded Ki value for this compound: O=C(Nc1ccc([C@@H]2CNCCO2)cc1)c1ccn(-c2ccc(OC(F)F)cc2)n1 [Example 46, hydrochloride]
0.004 µM

Indicate the recorded Ki value for this compound: O=C(Nc1ccc([C@H]2CNCCO2)cc1)c1cc(-c2ccccc2F)n[nH]1 [Example 8, hydrochloride]
0.0009 µM

Indicate the recorded Ki value for this compound: N#Cc1cccc(-c2cc(C(=O)Nc3ccc(C4CCNC4)cc3)[nH]n2)c1 (racemic) [Example 38, hydrochloride]
0.0021 µM

Indicate the recorded Ki value for this compound: O=C(Nc1ccc([C@H]2CNCCO2)cc1)c1cc(-c2ccc(Cl)cc2)n[nH]1 [Example 14, hydrochloride]
0.0017 µM

Indicate the recorded Ki value for this compound: N#Cc1cc(-c2cc(C(=O)Nc3ccc([C@H]4CNCCO4)cc3)[nH]n2)ccc1F [Example 39, hydrochloride]
0.0014 µM

Indicate the recorded Ki value for this compound: N#Cc1cccc(-c2cc(C(=O)Nc3ccc([C@H]4CNCCO4)cc3)[nH]n2)c1F [Example 43, hydrochloride]
0.0016 µM

Indicate the recorded Ki value for this compound: O=C(Nc1ccc([C@H]2CNCCO2)cc1)c1ccn(-c2ccc(Cl)cn2)n1 [Example 32, hydrochloride]
0.0007 µM

Indicate the recorded Ki value for this compound: O=C(Nc1ccc([C@H]2CNCCO2)cc1)c1ccn(-c2cncc(C(F)(F)F)n2)n1 [Example 52, hydrochloride]
0.0084 µM

Indicate the recorded Ki value for this compound: O=C(Nc1ccc([C@@H]2CNCCO2)cc1)c1cc(-c2ccc(Cl)cc2)n[nH]1 [Example 12, hydrochloride]
0.0005 µM

Indicate the recorded Ki value for this compound: CCn1nc(-c2ccc(C#N)cc2)cc1C(=O)Nc1ccc([C@H]2CNCCO2)cc1 [Example 26, hydrochloride]
0.0734 µM

Indicate the recorded Ki value for this compound: CCn1nc(-c2cccc(OC(F)F)c2)cc1C(=O)Nc1ccc([C@H]2CNCCO2)cc1 [Example 42, hydrochloride]
0.001 µM

Indicate the recorded Ki value for this compound: O=C(Nc1ccc([C@@H]2CNCCO2)cc1)c1cc(-c2cccc(Cl)c2)n[nH]1 [Example 15, hydrochloride]
0.0006 µM

Indicate the recorded Ki value for this compound: COc1ccc(-c2cc(C(=O)Nc3ccc([C@H]4CNCCO4)cc3)[nH]n2)cc1OC [Example 11, hydrochloride]
0.0026 µM

Indicate the recorded Ki value for this compound: O=C(Nc1ccc([C@H]2CNCCO2)cc1)c1ccn(-c2ccc(C(F)(F)F)cn2)n1 [Example 33, hydrochloride]
0.0028 µM

###

Molecular target: mouse TAAR1 (Mus musculus (Mouse))
Assay: Radioligand binding assay on mouse TAAR1
Conditions: membranes of HEK-293 cells stably expressing mouse TAAR1; first value of cell mouse/rat
Structures can show the parent of a compound that is named as a salt.
Each entry belongs to exactly one class, chosen by where its Ki falls: bin A = under 0.001 µM, bin B = from 0.001 µM up to 0.007 µM, bin C = 0.007 µM and over

Class for O=C(Nc1ccc([C@H]2CNCCO2)cc1)c1cc(-c2ccccc2Cl)n[nH]1 [Example 10, hydrochloride] ?
bin A

Class for COc1ccccc1-c1cc(C(=O)Nc2ccc([C@H]3CNCCO3)cc2)[nH]n1 [Example 9, hydrochloride] ?
bin B

Class for O=C(Nc1ccc([C@H]2CNCCO2)cc1)c1ccnn1-c1ccccc1 [Example 30, hydrochloride] ?
bin C

Class for Cn1nc(-c2cccc(C#N)c2)cc1C(=O)Nc1ccc([C@H]2CNCCO2)cc1 [Example 24, hydrochloride] ?
bin B

Class for O=C(Nc1ccc([C@H]2CNCCO2)cc1)c1ccn(-c2ccc(F)cc2)n1 [Example 29, hydrochloride] ?
bin B

Class for O=C(Nc1ccc([C@H]2CNCCO2)cc1)c1cc(-c2cccc(Cl)c2)[nH]n1 [Example 2, hydrochloride] ?
bin A

Class for O=C(Nc1ccc([C@H]2CNCCO2)cc1)c1ccn(-c2ccnc(C(F)(F)F)n2)n1 [Example 54, hydrochloride] ?
bin B

Class for O=C(Nc1ccc([C@H]2CNCCO2)cc1)c1ccn(-c2cc(C(F)(F)F)ncn2)n1 [Example 51, hydrochloride] ?
bin C

Class for N#Cc1ccc(F)c(-c2cc(C(=O)Nc3ccc([C@H]4CNCCO4)cc3)n[nH]2)c1 [Example 28, hydrochloride] ?
bin B

Class for N#Cc1cccc(-c2cc(C(=O)Nc3ccc([C@@H]4CCCNC4)cc3)[nH]n2)c1 [Example 36, hydrochloride] ?
bin B
